Data origin: patent US10961202B2

Measured MBNL1 % splicing rescue at 10 μM of individual entries
System: MBNL1 exon 5 inclusion in DM1 myotubes
Experiment: Myotube splicing rescue assay (MBNL1 exon 5 inclusion)
Type: cell-based, human
Conditions: 10 μM, 48-hour incubation
observed.property: MBNL1 % splicing rescue at 10 μM (%)

COCCOc1cc(-c2nc3ccc(OCCCN(C)C)cc3[nH]2)ccc1-c1nc2ccc(OCCCN(C)C)cc2[nH]1 [Compound 258]; 10.0
CN(C)CCCOc1c(F)cc2nc(-c3ccc(-c4nc5cc(F)c(OCCCN(C)C)c(F)c5[nH]4)cc3)[nH]c2c1F [Compound 273]; −15.3
CN(C)CCCOc1ccc2nc(-c3ccc(-c4nc5ccc(C(=O)OCCN(C)C)cc5[nH]4)cc3)[nH]c2c1 [Compound 266]; −13.1
CN(C)CCCOc1cc2[nH]c(-c3ccc(-c4nc5cc(F)c(OCCCN(C)C)cc5[nH]4)cc3)nc2cc1F [Compound 277]; 51.0
CN1CCN(CCNC(=O)c2ccc3nc(-c4ccc(-c5nc6ccc(C(=O)NCCN7CCCCC7)cc6[nH]5)cc4)[nH]c3c2)CC1 [Compound 44]; 16.4
CN(C)CCCOc1ccc2nc(-c3ccc(-c4nc5ccc(OCCCN(C)C)cc5[nH]4)cc3)[nH]c2c1 [Compound 58]; 79.1
CN(C)CCCOc1ccc2nc(-c3ccc(-c4nc5ccc(OCCCN(C)C)cc5[nH]4)c(C#N)c3)[nH]c2c1 [Compound 268]; 73.6
[N-]=[N+]=NCCN1CCN(CCNC(=O)c2ccc3nc(-c4ccc(-c5nc6ccc(C(=O)NCCN7CCCCC7)cc6[nH]5)cc4)[nH]c3c2)CC1 [Compound 172]; 14.2
CN(C)CCOC(=O)c1ccc2nc(-c3ccc(-c4nc5ccc(C(=O)OCCN(C)C)cc5[nH]4)c(F)c3)[nH]c2c1 [Compound 270]; −19.5
N=C(N)CCCOc1ccc2nc(-c3ccc(-c4nc5ccc(OCCCC(=N)N)cc5[nH]4)cc3)[nH]c2c1 [Compound 297]; −4.4
O=C(NCCN1CCCC1)c1ccc(-c2nc3cc(-c4ccc5[nH]c(-c6ccc(C(=O)NCCN7CCCC7)cc6)nc5c4)ccc3[nH]2)cc1 [Compound 115]; 57.5
CN(CC(=O)NCCN1CCN(CCNC(=O)c2ccc3nc(-c4ccc(-c5nc6ccc(C(=O)NCCN7CCCCC7)cc6[nH]5)cc4)[nH]c3c2)CC1)CC(=O)NCCN1CCN(CCNC(=O)c2ccc3nc(-c4ccc(-c5nc6ccc(C(=O)NCCN7CCCCC7)cc6[nH]5)cc4)[nH]c3c2)CC1 [Compound 405]; −2.5

###

Test system: MBNL1 exon 5 inclusion in DM1 myotubes
Experiment: Myotube splicing rescue assay (MBNL1 exon 5 inclusion)
Format: cell-based, human
Conditions: 10 μM, 48-hour incubation
Measured MBNL1 % splicing rescue at 10 μM of individual entries
observed.property: MBNL1 % splicing rescue at 10 μM (%)

COc1cc(-c2nc3ccc(C(=O)NCCN(C)C)cc3[nH]2)c(OC)cc1-c1nc2cc(OCCCN(C)C)ccc2[nH]1; −41.8
COc1cc(-c2nc3ccc(OCCCN(C)C)cc3[nH]2)c(OCc2ccccc2)cc1-c1nc2cc(OCCCN(C)C)ccc2[nH]1; 18.1
CCN(CC)CCNC(=O)c1ccc(-c2nc3cc(-c4ccc5[nH]c(-c6ccc(C(=O)NCCN(CC)CC)cc6)nc5c4)ccc3[nH]2)cc1; 66.5
CN(C)CCCCCOc1ccc2nc(-c3ccc(-c4nc5ccc(OCCCCCN(C)C)cc5[nH]4)cc3)[nH]c2c1; 111.7
c1cc2nc(-c3ccc(-c4nc5ccc(OCCCN6CCCCC6)cc5[nH]4)cc3)[nH]c2cc1OCCCN1CCCCC1; 119.3
CN1CC[C@@H](NC(=O)c2ccc(-c3nc4cc(-c5ccc6[nH]c(-c7ccc(C(=O)N[C@@H]8CCN(C)C8)cc7)nc6c5)ccc4[nH]3)cc2)C1; 1.8
CN1CCCCC1COc1ccc(-c2nc3cc(-c4ccc5[nH]c(-c6ccc(O)cc6)nc5c4)ccc3[nH]2)cc1 (stereo not drawn); 74.6
O=C(NCCN1CCCCC1)c1ccc(-c2nc3cc(-c4ccc5[nH]c(-c6ccc(C(=O)NCCN7CCCCC7)cc6)nc5c4)ccc3[nH]2)cc1; 74.7
Nc1cc(-c2nc3ccc(C(=O)NCCN4CCCCC4)cc3[nH]2)ccc1-c1nc2ccc(C(=O)NCCN3CCCCC3)cc2[nH]1; −5.0
COc1cc(-c2nc3ccc(OCCCN(C)C)cc3[nH]2)ccc1-c1nc2ccc(OCCCN(C)C)cc2[nH]1; 71.0
CN(C)CCCOc1ccc2nc(-c3ccc(-c4nc5ccc(OCCCC(=O)OC(C)(C)C)cc5[nH]4)cc3)[nH]c2c1; 13.0
CN1CCC(CNC(=O)c2ccc(-c3nc4cc(-c5ccc6[nH]c(-c7ccc(C(=O)NCC8CCN(C)CC8)cc7)nc6c5)ccc4[nH]3)cc2)CC1; −0.4

###

Tested on: MBNL1 exon 5 inclusion in DM1 myotubes
Assay: Myotube splicing rescue assay (MBNL1 exon 5 inclusion)
Type: cell-based, human
Settings: 10 μM, 48-hour incubation
Measured MBNL1 % splicing rescue at 10 μM of individual entries
observed.property: MBNL1 % splicing rescue at 10 μM (%)

CN(C)CCCOc1ccc2nc(-c3ccc(-c4nc5ccc(OCCCN(C)C)cc5[nH]4)c4c3OCO4)[nH]c2c1; 58.8
CN1CCC(COc2ccc(-c3nc4cc(-c5ccc6[nH]c(-c7ccc(OCC8CCN(C)CC8)cc7)nc6c5)ccc4[nH]3)cc2)CC1; 77.0
C[C@@H](NC(=O)CNCCCn1cc(CCCCN(C)CCNC(=O)c2ccc(-c3nc4cc(-c5ccc6[nH]c(-c7ccc(OCCCN(C)C)cc7)nc6c5)ccc4[nH]3)cc2)nn1)C(=O)N[C@H](C)C(=O)N[C@H](C)C(=O)N[C@H](C)C(=O)N(CCCn1cc(CCCCN(C)CCNC(=O)c2ccc(-c3nc4cc(-c5ccc6[nH]c(-c7ccc(OCCCN(C)C)cc7)nc6c5)ccc4[nH]3)cc2)nn1)CC(N)=O; −35.5
O=C(NCCN1CCN(CCNC(=O)c2ccc3nc(-c4ccc(-c5nc6ccc(C(=O)NCCN7CCCCC7)cc6[nH]5)cc4)[nH]c3c2)CC1)NCCN1CCN(CCNC(=O)c2ccc3nc(-c4ccc(-c5nc6ccc(C(=O)NCCN7CCCCC7)cc6[nH]5)cc4)[nH]c3c2)CC1; 54.3
CN(C)CCCCCOc1ccc(-c2nc3cc(-c4ccc5[nH]c(-c6ccc(OCCCCCN(C)C)cc6)nc5c4)ccc3[nH]2)cc1; 72.4

###

System: MBNL1 exon 5 inclusion in DM1 myotubes
Test: Myotube splicing rescue assay (MBNL1 exon 5 inclusion)
Type: cell-based, human
Conditions: 1 μM, 48-hour incubation
observed.property: MBNL1 % splicing rescue at 1 μM (%)

CCN(CC)CCOc1ccc(-c2nc3cc(-c4ccc5[nH]c(-c6ccc(OCCN(CC)CC)cc6)nc5c4)ccc3[nH]2)cc1; 7.5
[N-]=[N+]=NCCN1CCN(CCNC(=O)c2ccc3nc(-c4ccc(-c5nc6ccc(C(=O)NCCN7CCCCC7)cc6[nH]5)cc4)[nH]c3c2)CC1; 22.1
CN(C)CCCOc1ccc2nc(-c3ccc(-c4ccc(-c5nc6ccc(OCCCN(C)C)cc6[nH]5)cc4)cc3)[nH]c2c1; 24.6
CN(C)CCCOc1ccc(-c2nc3cc(-c4ccc5[nH]c(-c6ccc(C(=O)NCCN(C)C)cc6)nc5c4)ccc3[nH]2)cc1; 79.9
CN1CCC(NC(=O)c2ccc(-c3nc4cc(-c5ccc6[nH]c(-c7ccc(C(=O)NC8CCN(C)CC8)cc7)nc6c5)ccc4[nH]3)cc2)CC1; 7.8
CC(C)N(CCNC(=O)c1ccc2nc(-c3ccc(-c4nc5ccc(C(=O)NCCN(C(C)C)C(C)C)cc5[nH]4)cc3)[nH]c2c1)C(C)C; 20.8
CN1CCC(COc2ccc(-c3nc4cc(-c5ccc6[nH]c(-c7ccc(OCC8CCN(C)CC8)cc7)nc6c5)ccc4[nH]3)cc2)CC1; 59.0
O=C(NCCN1CCN(CCNC(=O)c2ccc3nc(-c4ccc(-c5nc6ccc(C(=O)NCCN7CCCCC7)cc6[nH]5)cc4)[nH]c3c2)CC1)NCCN1CCN(CCNC(=O)c2ccc3nc(-c4ccc(-c5nc6ccc(C(=O)NCCN7CCCCC7)cc6[nH]5)cc4)[nH]c3c2)CC1; 9.4
CN(C)CCCOc1ccc2nc(-c3cc(O)c(-c4nc5ccc(OCCCN(C)C)cc5[nH]4)cc3O)[nH]c2c1; 79.7
CN(C)CCCOc1ccc(-c2nc3cc(-c4ccc5[nH]c(-c6ccc(OCCCN(C)C)cc6)nc5c4)ccc3[nH]2)cc1; 85.4
CN1CC[C@@H](NC(=O)c2ccc(-c3nc4cc(-c5ccc6[nH]c(-c7ccc(C(=O)N[C@@H]8CCN(C)C8)cc7)nc6c5)ccc4[nH]3)cc2)C1; −3.2
CN1CCN(c2ccc(-c3nc4cc(-c5ccc6[nH]c(-c7ccc(N8CCN(C)CC8)cc7)nc6c5)ccc4[nH]3)cc2)CC1; 73.1
CN(C)CCCOc1ccc2nc(-c3ccc(-c4nc5ccc(OCCCN(C)C)cc5[nH]4)cc3)[nH]c2c1; 11.0
O=C(NCCN1CCC(O)CC1)c1ccc2[nH]c(-c3ccc(-c4nc5ccc(C(=O)NCCN6CCC(O)CC6)cc5[nH]4)cc3)nc2c1; 0.8
CN(C)CCNC(=O)c1ccc(-c2nc3cc(-c4ccc5[nH]c(-c6ccc(C(=O)NCCN(C)C)cc6)nc5c4)ccc3[nH]2)cc1; 0.0
CN(C)CCCOc1ccc2nc(-c3ccc(-c4nc5ccc(NC6=NCCN6C6=NCCN6)cc5[nH]4)cc3)[nH]c2c1; 11.5
CN(C)CCOc1cccc(-c2nc3cc(-c4ccc5[nH]c(-c6cccc(OCCN(C)C)c6)nc5c4)ccc3[nH]2)c1; 66.0
CN1CCN(Cc2ccc(-c3nc4cc(-c5ccc6[nH]c(-c7ccc(CN8CCN(C)CC8)cc7)nc6c5)ccc4[nH]3)cc2)CC1; 57.2
c1ccc(COc2ccc(-c3nc4cc(-c5ccc6[nH]c(-c7ccc(OCc8ccccn8)cc7)nc6c5)ccc4[nH]3)cc2)nc1; 3.1
CN1CCC[C@H]1COc1ccc(-c2nc3cc(-c4ccc5[nH]c(-c6ccc(OC[C@@H]7CCCN7C)cc6)nc5c4)ccc3[nH]2)cc1; 43.7
O=C(NCCN1CCCCC1)c1ccc2nc(-c3ccc(-c4nc5ccc(C(=O)NCCN6CCNCC6)cc5[nH]4)cc3)[nH]c2c1; 16.6
c1cc(-c2nc3cc(-c4ccc5[nH]c(-c6ccc(OCCN7CCCC7)cc6)nc5c4)ccc3[nH]2)ccc1OCCN1CCCC1; 78.9
CC(C)N(CCNC(=O)c1ccc(-c2nc3cc(-c4ccc5[nH]c(-c6ccc(C(=O)NCCN(C(C)C)C(C)C)cc6)nc5c4)ccc3[nH]2)cc1)C(C)C; 7.9
CN(C)CCCOc1ccc(-c2nc3cc(-c4ccc5[nH]c(-c6ccc(O)cc6)nc5c4)ccc3[nH]2)cc1; 75.3
